system under test: Cytochrome P450 2C9 (Homo sapiens, UniProt P11712)
Sequence (P11712 whole entry): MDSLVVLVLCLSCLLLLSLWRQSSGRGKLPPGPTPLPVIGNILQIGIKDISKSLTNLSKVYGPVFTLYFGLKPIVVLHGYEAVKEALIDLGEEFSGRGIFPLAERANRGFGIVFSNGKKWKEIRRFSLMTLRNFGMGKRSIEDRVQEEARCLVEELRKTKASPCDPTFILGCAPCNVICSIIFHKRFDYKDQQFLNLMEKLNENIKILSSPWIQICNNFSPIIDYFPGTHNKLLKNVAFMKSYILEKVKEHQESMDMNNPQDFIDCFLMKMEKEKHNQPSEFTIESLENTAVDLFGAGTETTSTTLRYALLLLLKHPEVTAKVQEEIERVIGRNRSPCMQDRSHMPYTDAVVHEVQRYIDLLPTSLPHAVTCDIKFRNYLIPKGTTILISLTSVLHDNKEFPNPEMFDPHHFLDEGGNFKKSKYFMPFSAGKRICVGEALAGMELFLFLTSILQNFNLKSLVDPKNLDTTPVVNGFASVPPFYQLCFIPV
observed property: IC50 (µM)
Kindly provide the numeric value in µM only, without the unit symbol.

What value of IC50 on Cytochrome P450 2C9 (Homo sapiens, UniProt P11712) does Nc1cccnc1C(=O)Nc1ccc(N2C(=O)c3ccccc3C2=O)c(Cl)c1 have?
7.2

----------
measurement description: Half life in Sprague-Dawley rat by LC/MS analysis
Format: ADME, organism-based
condition details: in vivo
// half-life lookup, one value per entry
Kindly provide the numeric value in h only, without the unit symbol.

INSERT INTO assay_data (smiles_repr, recorded_number) VALUES
  ('Nc1cccnc1C(=O)Nc1ccc(N2C(=O)c3ccccc3C2=O)c(Cl)c1', 3.7);

Now for the compound whose half-life we want.
What measured half-life goes with CCc1cnc(Oc2ccc(NC(=O)c3ncccc3N)cc2Cl)nc1 ?
1.5

Where do these numbers come from? They come from ChEMBL document CHEMBL3797196.
